Assignment: determine reported GI50 for the given compounds.
Tested on: UACC-62
Assay: NCI tumour cell line growth inhibition, 48 h
Calls of active or inactive are those of the source. Cut-off read from the data, not from the text of the source: active = GI50 up to about 1.1 µM and inactive = higher.

**Q:** Form field: reported GI50 of `Nc1nc(S)c2c(N)n[nH]c2c1C(=O)Nc1ccccc1`
**A:** > 100 µM (inactive)

**Q:** Form field: reported GI50 of `CN(C)c1cccc(-c2cc(O)c3ccccc3n2)c1`
**A:** 42 µM (inactive)

**Q:** Form field: reported GI50 of `CCOc1ccccc1/N=N/c1ccc2oc(=O)c(C(C)=O)cc2c1`
**A:** > 100 µM (inactive)

**Q:** Form field: reported GI50 of `COc1ccccc1-n1c(C)nc2ccccc2c1=O`
**A:** > 100 µM (inactive)

====

Test system: NCI-H522
Assay: NCI tumour cell line growth inhibition, 48 h
Active and inactive are the calls of the source. No stated cut-off is given here; in the data, active = GI50 up to about 1.1 µM and inactive = higher.
The reply should name one outcome from y for active, n for inactive

**Q:** Hi team, can someone confirm the assay call for `CCOC(=O)c1c(N2CCN(C)CC2)[nH]c(=O)c(C(c2c(Cl)cccc2Cl)c2c(O)c(C(=O)OCC)c(N3CCN(C)CC3)[nH]c2=O)c1O` ?
**A:** n

**Q:** Hi team, can someone confirm the assay call for `CC(=O)Nc1cc2c(cc1O)CC[C@@H]1[C@@H]2CC[C@]2(C)[C@@H](O)CC[C@@H]12` ?
**A:** n

**Q:** Hi team, can someone confirm the assay call for COc1c(O)ccc2c1CN1CCc3cc4c(cc3C1C2)OCO4 (centres undefined) ?
**A:** n

**Q:** Hi team, can someone confirm the assay call for `C=CCC(CC=O)(C(=O)OCC)C(=O)OCC` ?
**A:** n

**Q:** Hi team, can someone confirm the assay call for `CC(C)C(=O)NC(=S)Nc1ccc([N+](=O)[O-])cc1C#N` ?
**A:** n

**Q:** Hi team, can someone confirm the assay call for `O=[N+]([O-])c1ccc(C2=Nn3c(nnc3-c3ccc(Cl)cc3)SC2)o1` ?
**A:** y

**Q:** Hi team, can someone confirm the assay call for COC(=O)C1CC(C(=O)OC)c2nc3cc(C)c(C)cc3nc21 (centres undefined) ?
**A:** n

**Q:** Hi team, can someone confirm the assay call for `Cc1nc(C(N)=S)sc1C(=O)CC(=O)C(=O)Nc1cccc(Cl)c1C` ?
**A:** n

**Q:** Hi team, can someone confirm the assay call for COP(=O)(OC)C(N)CCSC (centres undefined) ?
**A:** n

**Q:** Hi team, can someone confirm the assay call for CC(C)Cc1cc2c(cc1O)CCC1C2CC[C@@]2(C)C1CC[C@@H]2O (some centres undefined) ?
**A:** n

**Q:** Hi team, can someone confirm the assay call for CC(=O)c1ccccc1NC(=O)C(=O)C(C(=O)c1ccccc1-c1ccccc1)C1OC(=O)c2ccccc21 (centres undefined) ?
**A:** n

**Q:** Hi team, can someone confirm the assay call for `c1ccc2c(c1)[nH]c1nc3cc(-c4ccc5nc6c(nc5c4)[nH]c4ccccc46)ccc3nc12` ?
**A:** n

**Q:** Hi team, can someone confirm the assay call for `C[N+](C)(C)C1=NNC2=Nc3ccccc3SC2=C1` ?
**A:** n

**Q:** Hi team, can someone confirm the assay call for `CC(=O)O[C@H]1C(=O)[C@@]2(C)[C@H]([C@H](OC(=O)c3cccc([N+](=O)[O-])c3)[C@]3(O)C[C@H](OC(=O)[C@H](O)[C@@H](NC(=O)c4ccccc4)c4ccccc4)C(C)=C1C3(C)C)[C@]1(OC(C)=O)CO[C@@H]1C[C@@H]2O` ?
**A:** y

Origin of measurements: ChEMBL document CHEMBL1201862
